The reported measurements were obtained from patent US11377442B2.

# Tested on: Renilla
# Assay Text: Renilla signal in NR2F6 agonist screening, cmpd/DMSO
# Type: cell-based
# Measurement Setup: Renilla, F4; 10% FBS; 2 uM; read-out: Renilla, F4, 10% FBS, cmpd/DMSO (mean)
Exercise: for every item that follows, state its recorded fold induction at 2 µM.

Consider the following illustrative entries.
COCCN[C@H]1CS(=O)(=O)C[C@@H]1S(=O)(=O)c1cccs1	1
CC(C)CCN[C@H]1CS(=O)(=O)C[C@@H]1S(=O)(=O)c1ccc(Cl)cc1	1.1
COc1ccc(CCN[C@H]2CS(=O)(=O)C[C@@H]2S(=O)(=O)c2ccc(Cl)cc2)cc1OC	0.9

Please find the next compound below.
Record request: fold induction at 2 µM value, item CCC(C)N[C@H]1CS(=O)(=O)C[C@@H]1S(=O)(=O)c1ccc(C)cc1 (stereo partly shown)
1
